Hello, the source for this data is PubChem BioAssay (NCI), in case you need it.

Test system: NCI-H226 lung
Assay: NCI tumour cell line growth inhibition, 48 h
observable: GI50

Incoming: Can you look up the measured GI50 of C/C=C(/C)C(=O)OC1C=C(CO)C(=O)C(OC(=O)/C(C)=C\C)C1C(C)C (configuration not stated) for me?
Outgoing: 2.41 µM

Incoming: Can you look up the measured GI50 of O=[N+]([O-])c1ccc2nc(N/N=C/c3ccc(O)cc3)sc2c1 for me?
Outgoing: 17.5 µM

Incoming: Can you look up the measured GI50 of O=C(c1cccs1)c1c(C(F)(F)F)n([O-])c2cc(F)c(F)cc2[n+]1=O for me?
Outgoing: 3.62 µM

Incoming: Can you look up the measured GI50 of CN(C)CCCC1(c2ccc(F)cc2)OCc2cc(-c3ccc4cc[nH]c4c3)ccc21 (configuration not stated) for me?
Outgoing: 10.7 µM

Incoming: Can you look up the measured GI50 of C[C@]12CC[C@@H]3c4ccc(O)cc4CC[C@H]3[C@@H]1CC[C@@H]2NS(=O)(=O)c1cccc(Br)c1 for me?
Outgoing: 3.19 µM

Incoming: Can you look up the measured GI50 of O=S(=O)(Nc1ccc(Cl)c(C(F)(F)F)c1)c1ccc(-c2cnc(C3CC3)o2)cc1 for me?
Outgoing: 1.41 µM

Incoming: Can you look up the measured GI50 of NC1=C(c2nc(-c3cc4ccccc4oc3=O)cs2)C(c2ccco2)c2c(c3ccccc3oc2=O)O1 (configuration not stated) for me?
Outgoing: 43.1 µg/mL

Incoming: Can you look up the measured GI50 of O=C1Nc2ccccc2SC1C1SC(=S)N(Cc2ccccc2)C1=O (configuration not stated) for me?
Outgoing: 17 µM

Incoming: Can you look up the measured GI50 of O=C1C(Nc2ccccn2)=C(I)C(=O)c2ncccc21 for me?
Outgoing: 1.43 µM

Incoming: Can you look up the measured GI50 of O=[N+]([O-])c1ccc(N(CCO)CCO)c2c1no[n+]2[O-] for me?
Outgoing: 2.01 µM

Incoming: Can you look up the measured GI50 of O=C(Oc1ccc([N+](=O)[O-])cc1)N1CCC(C(O)(c2ccc3c(c2)OCO3)c2ccc3c(c2)OCO3)CC1 for me?
Outgoing: > 100 µM

Incoming: Can you look up the measured GI50 of CCOC(=O)c1c(C)c2c(n1C)CSc1cc(S(=O)(=O)c3ccccc3)c(=O)[nH]c1-2 for me?
Outgoing: 23.9 µM
